Entry source: patent US20260151494A1

- experimentalTarget: T1, human CD71 extracellular domain (CD71-ECD) (human, UniProt P02786 89-760)
- T1 construct: also called hCD71; human CD71-ECD
- T1 sequence (P02786 89-760): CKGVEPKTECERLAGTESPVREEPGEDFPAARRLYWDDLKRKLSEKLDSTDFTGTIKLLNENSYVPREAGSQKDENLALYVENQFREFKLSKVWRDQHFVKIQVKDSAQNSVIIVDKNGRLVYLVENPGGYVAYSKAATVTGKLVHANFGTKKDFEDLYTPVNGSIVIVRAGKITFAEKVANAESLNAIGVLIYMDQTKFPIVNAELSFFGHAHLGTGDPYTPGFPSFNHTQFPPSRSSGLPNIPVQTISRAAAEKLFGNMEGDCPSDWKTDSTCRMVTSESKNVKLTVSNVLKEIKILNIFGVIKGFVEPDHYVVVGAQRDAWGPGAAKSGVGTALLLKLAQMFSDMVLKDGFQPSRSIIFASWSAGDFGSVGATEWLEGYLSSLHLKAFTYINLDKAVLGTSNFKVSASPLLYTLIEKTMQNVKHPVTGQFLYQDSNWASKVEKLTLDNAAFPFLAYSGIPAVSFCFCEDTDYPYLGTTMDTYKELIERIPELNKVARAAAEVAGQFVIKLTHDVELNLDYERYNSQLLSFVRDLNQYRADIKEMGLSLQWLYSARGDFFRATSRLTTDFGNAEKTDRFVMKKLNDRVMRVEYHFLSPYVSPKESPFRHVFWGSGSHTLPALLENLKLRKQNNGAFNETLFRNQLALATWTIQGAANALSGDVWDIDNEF
- testMethodNotes: primary ELISA; further: test concentration or dose not given here
readoutLabel: RLU (RLU)
Express it in RLU; write the number only.

CD71-binding FN3 domain SEQ ID NO: 262 (designed binder) MSLPAPKNLVVSRVTEDSARLSWTAPDAAFDSFFIGYLEPQPPGEVIHLFVPGSERSYDLTGLKPGTEYNVTIQGVKGGFPSDPLVASFTT ... 6.78e+06

As a next step, examine the binder that follows.
get_value(item= CD71-binding FN3 domain SEQ ID NO: 266 (designed binder) MSLPAPKNLVVSRVTEDSARLSWTAPDAAFDSFFIGYLEPQPPGEAIYLLVPGSERSYDLTGLKPGTEYNVTIQGVKGGFPSLPLVATFTT , readout=RLU) returns 5.41e+06
